biological target: β1 adrenergic receptor (Homo sapiens, UniProt P08588); assay: PDSP radioligand binding, β1; conditions: read-out: % inhibition at 10 µM; single concentration 10 µM
Sequence (P08588 whole entry, species assumed): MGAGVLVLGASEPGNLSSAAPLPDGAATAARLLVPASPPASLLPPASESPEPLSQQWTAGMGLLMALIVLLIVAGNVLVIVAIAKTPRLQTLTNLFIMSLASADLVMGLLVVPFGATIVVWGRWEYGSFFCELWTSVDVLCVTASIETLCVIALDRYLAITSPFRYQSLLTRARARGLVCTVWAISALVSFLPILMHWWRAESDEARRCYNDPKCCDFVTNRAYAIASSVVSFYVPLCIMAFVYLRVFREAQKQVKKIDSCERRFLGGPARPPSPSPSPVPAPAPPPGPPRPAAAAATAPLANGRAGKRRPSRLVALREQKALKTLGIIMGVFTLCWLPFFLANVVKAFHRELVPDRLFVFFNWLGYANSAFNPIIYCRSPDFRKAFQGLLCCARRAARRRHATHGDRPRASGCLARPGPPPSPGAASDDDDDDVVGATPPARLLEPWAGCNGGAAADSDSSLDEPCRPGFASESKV
PROPERTY: inhibition at 10 µM (%)

>  <COMPOUND>
CNC(=O)[C@@]12C[C@@H]1[C@@H](n1cnc3c(NCc4cccc(Cl)c4)nc(Cl)nc31)[C@H](O)[C@@H]2O [Compound 4]

>  <U>
%

>  <NUMERIC_VALUE>
0

$$$$
>  <COMPOUND>
Fc1ccc(C#Cc2nc(NCc3cccc(Cl)c3)c3nc[nH]c3n2)cc1F [Compound 8]

>  <U>
%

>  <NUMERIC_VALUE>
0

$$$$
>  <COMPOUND>
CNC(=O)[C@@]12C[C@@H]1[C@@H](n1cnc3c(NC)nc(C#Cc4ccc(F)c(F)c4)nc31)[C@H](O)[C@@H]2O [Compound 5]

>  <U>
%

>  <NUMERIC_VALUE>
9

$$$$
>  <COMPOUND>
Clc1cccc(CNc2nc(Cl)nc3[nH]cnc23)c1 [Compound 9]

>  <U>
%

>  <NUMERIC_VALUE>
37

$$$$
>  <COMPOUND>
O[C@@H]1[C@H](O)[C@@H]2C[C@@H]2[C@H]1n1cnc2c(NCc3cccc(Cl)c3)ncnc21 [Compound 7]

>  <U>
%

>  <NUMERIC_VALUE>
0

$$$$
>  <COMPOUND>
O[C@@H]1[C@H](O)[C@@H]2C[C@@H]2[C@H]1n1cnc2c(NCc3cccc(Cl)c3)nc(C#Cc3ccc(F)c(F)c3)nc21 [Compound 6]

>  <U>
%

>  <NUMERIC_VALUE>
6

$$$$
>  <COMPOUND>
CNC(=O)[C@@]12C[C@@H]1[C@@H](n1cnc3c(NCc4cccc(Cl)c4)nc(C#Cc4ccc(F)cc4)nc31)[C@H](O)[C@@H]2O [Compound 2]

>  <U>
%

>  <NUMERIC_VALUE>
0

$$$$
>  <COMPOUND>
O[C@@H]1[C@H](O)[C@@H]2C[C@@H]2[C@H]1n1cnc2c(NC(C3CC3)C3CC3)nc(Cl)nc21 [Compound 10]

>  <U>
%

>  <NUMERIC_VALUE>
4

$$$$
>  <COMPOUND>
CNC(=O)[C@@]12C[C@@H]1[C@@H](n1cnc3c(NCc4cccc(Cl)c4)nc(C#Cc4ccccc4Cl)nc31)[C@H](O)[C@@H]2O [Compound 3]

>  <U>
%

>  <NUMERIC_VALUE>
2

$$$$

###

biological target: 5HT6 serotonergic receptor (Homo sapiens); experiment: PDSP radioligand binding, 5HT6; details: read-out: % inhibition at 10 µM; single concentration 10 µM
Sequence (P50406 whole entry): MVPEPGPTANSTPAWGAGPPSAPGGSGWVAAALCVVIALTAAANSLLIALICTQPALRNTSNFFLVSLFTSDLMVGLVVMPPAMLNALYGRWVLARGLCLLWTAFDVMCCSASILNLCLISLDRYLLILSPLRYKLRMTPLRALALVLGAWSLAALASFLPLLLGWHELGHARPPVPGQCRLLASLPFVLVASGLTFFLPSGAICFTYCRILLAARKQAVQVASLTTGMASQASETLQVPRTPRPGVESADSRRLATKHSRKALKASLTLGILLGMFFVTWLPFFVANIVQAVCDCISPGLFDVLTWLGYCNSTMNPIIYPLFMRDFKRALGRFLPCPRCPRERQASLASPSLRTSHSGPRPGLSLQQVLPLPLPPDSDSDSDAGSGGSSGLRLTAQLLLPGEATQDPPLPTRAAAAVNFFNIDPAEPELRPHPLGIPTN

>  <SMILES_REPRESENTATION>
O[C@@H]1[C@H](O)[C@@H]2C[C@@H]2[C@H]1n1cnc2c(NC(C3CC3)C3CC3)nc(Cl)nc21

>  <U>
%

>  <inhibition at 10 µM>
0

$$$$
>  <SMILES_REPRESENTATION>
Clc1cccc(CNc2nc(Cl)nc3[nH]cnc23)c1

>  <U>
%

>  <inhibition at 10 µM>
31

$$$$
>  <SMILES_REPRESENTATION>
CNC(=O)[C@@]12C[C@@H]1[C@@H](n1cnc3c(NCc4cccc(Cl)c4)nc(Cl)nc31)[C@H](O)[C@@H]2O

>  <U>
%

>  <inhibition at 10 µM>
9

$$$$
>  <SMILES_REPRESENTATION>
CNC(=O)[C@@]12C[C@@H]1[C@@H](n1cnc3c(NCc4cccc(Cl)c4)nc(C#Cc4ccccc4Cl)nc31)[C@H](O)[C@@H]2O

>  <U>
%

>  <inhibition at 10 µM>
59

$$$$
>  <SMILES_REPRESENTATION>
O[C@@H]1[C@H](O)[C@@H]2C[C@@H]2[C@H]1n1cnc2c(NCc3cccc(Cl)c3)ncnc21

>  <U>
%

>  <inhibition at 10 µM>
39

$$$$
>  <SMILES_REPRESENTATION>
CNC(=O)[C@@]12C[C@@H]1[C@@H](n1cnc3c(NCc4cccc(Cl)c4)nc(C#Cc4ccc(F)cc4)nc31)[C@H](O)[C@@H]2O

>  <U>
%

>  <inhibition at 10 µM>
36

$$$$
>  <SMILES_REPRESENTATION>
CNC(=O)[C@@]12C[C@@H]1[C@@H](n1cnc3c(NC)nc(C#Cc4ccc(F)c(F)c4)nc31)[C@H](O)[C@@H]2O

>  <U>
%

>  <inhibition at 10 µM>
15

$$$$
>  <SMILES_REPRESENTATION>
O[C@@H]1[C@H](O)[C@@H]2C[C@@H]2[C@H]1n1cnc2c(NCc3cccc(Cl)c3)nc(C#Cc3ccc(F)c(F)c3)nc21

>  <U>
%

>  <inhibition at 10 µM>
0

$$$$
>  <SMILES_REPRESENTATION>
Fc1ccc(C#Cc2nc(NCc3cccc(Cl)c3)c3nc[nH]c3n2)cc1F

>  <U>
%

>  <inhibition at 10 µM>
0

$$$$
